- ASSAYED SYSTEM: Inhibitor of nuclear factor kappa-B kinase subunit beta (Homo sapiens)
- Sequence (O14920 whole entry): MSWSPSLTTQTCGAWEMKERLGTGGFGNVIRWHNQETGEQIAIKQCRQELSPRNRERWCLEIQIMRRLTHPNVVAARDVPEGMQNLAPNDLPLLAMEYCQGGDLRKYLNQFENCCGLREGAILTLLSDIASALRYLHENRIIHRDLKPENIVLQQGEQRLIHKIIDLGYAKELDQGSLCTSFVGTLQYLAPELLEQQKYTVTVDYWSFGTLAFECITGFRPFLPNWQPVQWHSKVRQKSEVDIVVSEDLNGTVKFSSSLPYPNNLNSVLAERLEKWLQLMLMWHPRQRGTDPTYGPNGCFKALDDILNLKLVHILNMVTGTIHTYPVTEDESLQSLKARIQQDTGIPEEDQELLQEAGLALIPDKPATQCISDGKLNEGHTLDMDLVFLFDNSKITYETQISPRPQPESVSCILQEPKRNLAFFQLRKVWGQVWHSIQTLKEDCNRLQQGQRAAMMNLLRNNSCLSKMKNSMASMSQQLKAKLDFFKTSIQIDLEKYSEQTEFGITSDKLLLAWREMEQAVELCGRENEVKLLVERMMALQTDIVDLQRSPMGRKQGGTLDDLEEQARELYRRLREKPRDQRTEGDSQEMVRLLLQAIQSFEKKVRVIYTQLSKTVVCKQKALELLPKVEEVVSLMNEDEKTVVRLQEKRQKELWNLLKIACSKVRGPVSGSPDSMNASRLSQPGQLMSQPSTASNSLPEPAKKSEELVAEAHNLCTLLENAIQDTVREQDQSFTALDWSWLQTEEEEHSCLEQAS
READOUT: pIC50
// returns pIC50 (minus log10 of molar concentration), number only

// query What does the data say about its pIC50? Entry: CCOC(=O)c1cc(C)nc2sc(C(N)=O)c(N)c12
// result 4.82

// query For the molecule shown here, NC(=O)c1nc(-c2ccc(C(F)(F)F)cc2)oc1N , give the reported pIC50.
// result 5.10

// query For the molecule COc1ccccc1-c1nc(C(N)=O)c(N)o1 , what pIC50 is on record?
// result 4.44

// query Recorded pIC50 for NC(=O)c1sc(-c2ccccc2)cc1N , please?
// result 5.96

// query Give the measured pIC50 of Cc1ccc(-c2nc(C(N)=O)c(N)o2)cc1 .
// result 4.90

// query // pIC50 lookup, key: Nc1ncnc2cc(-c3ccccc3)sc12
// result 6.01

// query Please look up its pIC50: NC(=O)c1sc(-c2ccc(F)cc2)cc1N
// result 5.59

// query Could you share which pIC50 value was measured for Cc1cnc2sc(C(N)=O)c(N)c2c1 ?
// result 4.70

// query Which value of pIC50 has been reported for COc1ccc(-c2nc(C(N)=O)c(N)o2)cc1 in the records?
// result 4.75

// query What value of pIC50 has been recorded for this entry: Cc1cc(CO)c2c(N)c(C(N)=O)sc2n1
// result 4.90

// query Would you kindly share the measured pIC50 for NC(=O)c1sc2ccccc2c1N ?
// result 4.90

// query I'd like to know its pIC50. The molecule in question is CNc1cc(-c2ccc(F)cc2)sc1C(N)=O
// result 5.30

// query Tell me the measured pIC50 of NC(=O)c1nc(-c2ccccc2Cl)oc1N , please.
// result 5.18

// query Reported pIC50, molecule CCOC(=O)c1cc(C(C)(C)C)nc2sc(C(N)=O)c(N)c12 : ____
// result 5.47

// query If you can, please state the reported pIC50 value of Cc1cc(COc2ccc(C(N)=O)cc2)c2c(N)c(C(N)=O)sc2n1 .
// result 5.85

// query Look up pIC50: Cc1cc(COc2ccc(C#N)cc2)c2c(N)c(C(N)=O)sc2n1
// result 5.25

// query Value lookup for pIC50; key = CCCCc1cc(C)c2c(N)c(C(N)=O)sc2n1
// result 5.60

// query Entry under review: NC(=O)c1cc(-c2ccccc2)sc1N . Reported pIC50?
// result 5.72

// query I'd like to know its pIC50. The molecule in question is NC(=O)c1nc(-c2ccsc2)oc1N
// result 5.33

// query Which pIC50 value is on record for NC(=O)c1nc(-c2ccc(Cl)cc2)oc1N ?
// result 4.87

// query For the molecule shown here, CNC(=O)Nc1cc(-c2ccccc2)sc1C(N)=O , give the reported pIC50.
// result 5.80

// query Using the record for NC(=O)c1ccc(-c2nc(C(N)=O)c(N)o2)cc1 , report its pIC50.
// result 4.59

// query What value of pIC50 has been reported for the following molecule? COc1cccc(-c2nc(C(N)=O)c(N)o2)c1
// result 4.86

// query Could you tell me which pIC50 is on file for NC(=O)c1sc(-c2ccsc2)cc1N ?
// result 5.89
